Tested on: SARS-CoV-2-NLuc in A549-hACE2 cells
assay summary: microbe, parasite or virus in culture
Assay type: cell-based, SARS Coronavirus 2
assay context: read-out: MPro EC50
Reported pEC50 by item:
Worth noting: pEC50 values are minus log10 of concentrations stated in mol/L.

Solved cases below.
- molecule: "COc1cc(-c2cc3c(o2)c(=O)n(-c2cncc4ccccc24)c(=O)n3CCC#N)c(Cl)cc1F (single isomer, unassigned) [Example 59]"
  system name: "SARS-CoV-2-NLuc in A549-hACE2 cells"
  pEC50: 8.33
- molecule: "COc1cc(-c2cc3c(o2)c(=O)n(-c2cncc4cnn(C)c24)c(=O)n3CCC#N)c(Cl)cc1F (single isomer, unassigned) [Example 63]"
  system name: "SARS-CoV-2-NLuc in A549-hACE2 cells"
  pEC50: 8.20
- molecule: "COc1cc(-c2cc3c(o2)c(=O)n(-c2cncc4cccnc24)c(=O)n3CCC#N)c(Cl)cc1F (single isomer, unassigned) [Example 66]"
  system name: "SARS-CoV-2-NLuc in A549-hACE2 cells"
  pEC50: 6.95
- molecule: "Cn1ncc2cncc(-n3c(=O)c4oc(-c5ccccc5Cl)cc4n(CCC#N)c3=O)c21 (single isomer, unassigned) [Example 62]"
  system name: "SARS-CoV-2-NLuc in A549-hACE2 cells"
  pEC50: 6.63

Now for the molecule whose pEC50 we want.
Req: Which measured pEC50 belongs to Cn1ncc2cncc(-n3c(=O)c4oc(-c5ccccc5Cl)cc4n(CCC#N)c3=O)c21 (single isomer, unassigned) [Example 61] , tested on SARS-CoV-2-NLuc in A549-hACE2 cells?
Resp: 8.15
